pKi: −log10 of the molar value.
What follows is a record of pKi for memapsin 2 (Homo sapiens, UniProt P56817).

COMPOUND	MEASURED_TARGET	OBSERVATION_TYPE	RESULT
Cc1nc(COC(=O)N[C@@H](CS(C)(=O)=O)C(=O)N[C@H](CC(C)C)[C@@H](O)C[C@@H](C)C(=O)NCC(C)C)c(C)o1 [Structure 42]	memapsin 2 (Homo sapiens, UniProt P56817)	pKi	< 6.00
CSC[C@H](NC(=O)OCc1nc(C)cs1)C(=O)N[C@H](CC(C)C)[C@@H](O)C[C@@H](C)C(=O)N[C@@H](C(=O)NCC(C)C)C(C)C [Structure 17]	memapsin 2 (Homo sapiens, UniProt P56817)	pKi	> 7.00
CC[C@@H](Cn1nc(C)cc1C)C(=O)N[C@@H](CSC)C(=O)N[C@H](CC(C)C)[C@@H](O)C[C@@H](C)C(=O)N[C@@H](C(=O)NCC(C)C)C(C)C [Structure 3]	memapsin 2 (Homo sapiens, UniProt P56817)	pKi	> 7.00
CC[C@@H](Cc1nc(C)cs1)C(=O)N[C@@H](CSC)C(=O)N[C@H](CC(C)C)[C@@H](O)C[C@@H](C)C(=O)N[C@@H](C(=O)NCC(C)C)C(C)C [Structure 75]	memapsin 2 (Homo sapiens, UniProt P56817)	pKi	> 7.00

**Query** Lab note: need pKi for Cc1csc(COC(=O)N[C@@H](CS(=O)(=O)C(C)C)C(=O)N[C@H](CC(C)C)[C@@H](O)C[C@@H](C)C(=O)N[C@@H](C(=O)NCC(C)C)C(C)C)n1 [Structure 31] on memapsin 2 (Homo sapiens, UniProt P56817), anyone have it?
**Result** > 7.00

---

Target: memapsin 1 (Homo sapiens, UniProt Q9Y5Z0)
Sequence (Q9Y5Z0 63-518): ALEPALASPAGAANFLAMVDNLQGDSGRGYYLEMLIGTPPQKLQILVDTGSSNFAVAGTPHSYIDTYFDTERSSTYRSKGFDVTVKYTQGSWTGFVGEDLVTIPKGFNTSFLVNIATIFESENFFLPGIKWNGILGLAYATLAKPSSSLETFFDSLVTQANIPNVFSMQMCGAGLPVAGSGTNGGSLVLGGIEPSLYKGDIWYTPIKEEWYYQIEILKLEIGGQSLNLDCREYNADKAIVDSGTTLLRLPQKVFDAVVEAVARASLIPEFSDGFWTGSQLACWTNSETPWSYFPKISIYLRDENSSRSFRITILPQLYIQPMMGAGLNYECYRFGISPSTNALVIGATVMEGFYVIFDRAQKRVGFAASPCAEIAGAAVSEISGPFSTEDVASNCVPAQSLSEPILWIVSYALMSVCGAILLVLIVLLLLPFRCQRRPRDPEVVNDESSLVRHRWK
Assay: Inhibition of memapsin 1 beta-secretase activity (substrate peptide […], MALDI-TOF)
Assay type: biochemical
Settings: pH 4.1, 37 degrees C., substrate NH3-ELDLAVEFWHDR-CO2, MALDI-TOF; read-out: M1 Ki
OBSERVATION_TYPE: Ki

COMPOUND	RESULT
CCc1nc(COC(=O)N[C@@H](CS(C)(=O)=O)C(=O)N[C@H](CC(C)C)[C@@H](O)C[C@@H](C)C(=O)N[C@@H](C(=O)NCC(C)C)C(C)C)c(C)s1 [Structure 71]	100 to 1000 nM
CSC[C@H](NC(=O)OCc1nc(C)cs1)C(=O)N[C@H](Cc1ccccc1)[C@@H](O)C[C@@H](C)C(=O)N[C@@H](C(=O)NCC(C)C)C(C)C [Structure 52]	100 to 1000 nM
Cc1nc(COC(=O)N[C@@H](CS(C)(=O)=O)C(=O)N[C@H](CC(C)C)[C@@H](O)C[C@@H](C)C(=O)N[C@@H](C(=O)NCc2ccncc2)C(C)C)c(C)o1 [Structure 48]	100 to 1000 nM

**Query** // returns reported Ki for input CSC[C@H](NC(=O)[C@@H](C)Cc1nc(C)cs1)C(=O)N[C@H](CC(C)C)[C@@H](O)C[C@@H](C)C(=O)N[C@@H](C(=O)NCC(C)C)C(C)C [Structure 65]
**Result** < 100 nM

---

The entries below are paired with their reported pKi.
target: UniProt P07339; test: Inhibition of cathepsin D activity (substrate peptide […], MALDI-TOF); format: biochemical; conditions: pH 4.1, 37 degrees C., substrate NH3-[…]-CO2, MALDI-TOF; read-out: Cath D Ki
pKi: −log10 of the molar value.

Examples with answers:
Cc1csc(COC(=O)N[C@@H](CS(C)(=O)=O)C(=O)N[C@H](CC(C)C)[C@@H](O)C[C@@H](C)C(=O)N[C@@H](C(=O)NCC(C)C)C(C)C)n1 6.00 to 7.00
Cc1csc(COC(=O)N[C@@H](CSC(C)C)C(=O)N[C@H](CC(C)C)[C@@H](O)C[C@@H](C)C(=O)N[C@@H](C(=O)NCC(C)C)C(C)C)n1 > 7.00

**Query** Find pKi (UniProt P07339) for the entry Cc1csc(COC(=O)N[C@@H](CS(C)(=O)=O)C(=O)N[C@@H](CC(C)C)[C@@H](O)C[C@@H](C)C(=O)NN(C)S(C)(=O)=O)n1
**Result** < 6.00

**Query** Field: pKi (UniProt P07339). Entry: Cc1csc(COC(=O)N[C@@H](CSCC(C)C)C(=O)N[C@H](CC(C)C)[C@@H](O)C[C@@H](C)C(=O)N[C@@H](C(=O)NCC(C)C)C(C)C)n1
**Result** > 7.00

**Query** Which measured pKi belongs to Cc1nc(COC(=O)N[C@@H](CS(C)(=O)=O)C(=O)N[C@H](CC(C)C)[C@@H](O)C[C@@H](C)C(=O)N[C@@H](C(=O)NN(C)C)C(C)C)c(C)o1 , tested on UniProt P07339?
**Result** 6.00 to 7.00

---

molecular target: Cathepsin D (Homo sapiens, UniProt P07339); experiment: Inhibition of cathepsin D activity (substrate peptide […], MALDI-TOF); type: biochemical; details: pH 4.1, 37 degrees C., substrate NH3-[…]-CO2, MALDI-TOF; read-out: Cath D Ki
Sequence (P07339 65-412, species assumed): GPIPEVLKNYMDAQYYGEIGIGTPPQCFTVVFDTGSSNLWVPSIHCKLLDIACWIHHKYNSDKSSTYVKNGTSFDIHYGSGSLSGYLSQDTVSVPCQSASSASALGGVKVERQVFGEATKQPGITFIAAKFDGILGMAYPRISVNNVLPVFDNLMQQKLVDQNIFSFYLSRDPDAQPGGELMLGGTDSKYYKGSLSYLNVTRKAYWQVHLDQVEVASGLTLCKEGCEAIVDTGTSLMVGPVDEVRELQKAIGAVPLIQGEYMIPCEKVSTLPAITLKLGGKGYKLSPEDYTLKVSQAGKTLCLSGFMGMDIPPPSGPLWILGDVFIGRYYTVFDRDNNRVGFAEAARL
pKi: −log10 of the molar value.
OBSERVATION_TYPE: pKi

See these solved cases before continuing.
CC[C@@H](Cc1nc(C)cs1)C(=O)N[C@@H](CSC)C(=O)N[C@H](CC(C)C)[C@@H](O)C[C@@H](C)C(=O)N[C@@H](C(=O)NCC(C)C)C(C)C > 7.00
CC[C@H](C[C@H](O)[C@@H](CC(C)C)NC(=O)[C@H](CSC)NC(=O)OCc1nc(C)oc1C)C(=O)N[C@@H](C(=O)NCC(C)C)C(C)C > 7.00
CSC[C@H](NC(=O)OCc1nc(C)cs1)C(=O)N[C@H](CC(C)C)[C@@H](O)C[C@@H](C)C(=O)N[C@@H](C(=O)NCC(C)C)C(C)C > 7.00
COc1ccc(C[C@H](NC(=O)[C@H](CS(C)(=O)=O)NC(=O)OCc2nc(C)oc2C)[C@@H](O)C[C@@H](C)C(=O)N[C@H](C(=O)NCC(C)C)C(C)C)cc1 > 7.00

**Query** What pKi value was documented for this compound, Cc1csc(COC(=O)N[C@@H](CS(=O)(=O)C2CCCC2)C(=O)N[C@H](CC(C)C)[C@@H](O)C[C@@H](C)C(=O)N[C@@H](C(=O)NCC(C)C)C(C)C)n1 ?
**Result** 6.00 to 7.00

---

molecular target: memapsin 2 (Homo sapiens, UniProt P56817); assay: Inhibition of memapsin 2 beta-secretase activity toward fluorogenic substrate FS-2; assay type: biochemical; details: pH 4, 37° C., 20 minutes pre-incubation, substrate FS-2, tight-binding model; read-out: M2 Ki
Sequence (P56817 46-501): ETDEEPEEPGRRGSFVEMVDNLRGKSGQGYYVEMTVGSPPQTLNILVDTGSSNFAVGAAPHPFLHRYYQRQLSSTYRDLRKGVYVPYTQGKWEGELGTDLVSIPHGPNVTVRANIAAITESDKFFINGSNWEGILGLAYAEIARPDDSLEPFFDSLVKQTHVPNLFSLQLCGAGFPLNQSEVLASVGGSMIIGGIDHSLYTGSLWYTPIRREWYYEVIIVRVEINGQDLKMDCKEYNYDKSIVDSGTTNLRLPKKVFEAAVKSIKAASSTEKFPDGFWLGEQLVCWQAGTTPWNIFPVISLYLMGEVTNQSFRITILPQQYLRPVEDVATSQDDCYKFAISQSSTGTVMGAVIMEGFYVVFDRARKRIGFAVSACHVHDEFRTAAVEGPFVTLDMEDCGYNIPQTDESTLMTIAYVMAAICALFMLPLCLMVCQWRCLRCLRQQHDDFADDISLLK
# maps each entry to its Ki

CCc1nc(COC(=O)N[C@@H](CS(C)(=O)=O)C(=O)N[C@H](CC(C)C)[C@@H](O)C[C@@H](C)C(=O)N[C@@H](C(=O)NCC(C)C)C(C)C)c(C)s1 < 100 nM
CSC[C@H](NC(=O)OCc1nccn1C)C(=O)N[C@@H](CC(C)C)[C@@H](O)C[C@@H](C)C(=O)N[C@@H](C(=O)NCC(C)C)C(C)C > 1000 nM
Cc1csc(COC(=O)N[C@@H](CS(C)(=O)=O)C(=O)N[C@H](CC(C)C)[C@@H](O)C[C@@H](C)C(=O)N[C@@H](C(=O)NCC(C)C)c2ccccc2)n1 < 100 nM
COCS(=O)(=O)C[C@H](NC(=O)CCn1nc(C)cc1C)C(=O)N[C@H](CC(C)C)[C@@H](O)C[C@@H](C)C(=O)N[C@@H](C(=O)NCC(C)C)C(C)C 100 to 1000 nM

// next entry
**Query** Fill blank: measured Ki of the compound Cc1nc(COC(=O)N[C@@H](CS(C)(=O)=O)C(=O)N[C@H](CC(C)C)[C@@H](O)C[C@@H](C)C(=O)N[C@@H](C(=O)NCC(C)C)C(C)C)co1 is ____.
**Result** 100 to 1000 nM
